I'd be grateful if you could share measured melting point for these entries.
Counter-ions that a name gives are not always drawn.

In plain terms, Cc1nc(N2CCCC2)c2[nH]c(-c3ccccc3)cc2n1 (as salt: hydrochloride) (hydrate or solvate) [Example 193, Hydrochloride Monohydrate] has a documented melting point of > 296 °C

In plain terms, CCc1nc(N2CCCCC2)c2[nH]c(-c3ccccc3)cc2n1.Cl (hydrate or solvate) [Example 68c] has a documented melting point of 286 to 288 °C (dec.)

In plain terms, Cc1nc(N2CCCCC2)c2[nH]c(-c3cccs3)cc2n1.Cl [Example 76c] has a documented melting point of > 280 °C

In plain terms, Cc1nc(N2CCCCC2)c2[nH]c(-c3ccccn3)cc2n1.Cl (hydrate or solvate) has a documented melting point of > 280 °C

In plain terms, c1ccc(-c2cc3nc(N4CCCC4)nc(N4CCCCC4)c3[nH]2)cc1 (as salt: hydrochloride) (hydrate or solvate) has a documented melting point of > 272 °C

In plain terms, COc1ccc(-c2cc3nc(C)nc(N4CCCCC4)c3[nH]2)cc1.Cl (hydrate or solvate) [Example 71e] has a documented melting point of 267.5 to 268 °C (dec.)

In plain terms, Cl.c1ccc(-c2cc3ncnc(N4CCCCC4)c3[nH]2)nc1 (hydrate or solvate) has a documented melting point of 279 to 280 °C

In plain terms, Cc1nc(N2CCCCC2)c2[nH]c(-c3ccccc3F)cc2n1.Cl (hydrate or solvate) has a documented melting point of 287 to 289 °C

In plain terms, "COc1cc(-c2cc3nc(C)nc(N4CCCCC4)c3[nH]2)cc(OC)c1OC.Cl" has a documented melting point of 275 to 277 °C

In plain terms, Cc1ccc2sc(-c3cc4nc(C)nc(N5CCCCC5)c4[nH]3)c(C)c2c1.Cl (hydrate or solvate) has a documented melting point of > 280 °C

In plain terms, Cc1nc(N2CCCCC2)c2[nH]c(-c3ccc4c(c3)OCO4)cc2n1.Cl (hydrate or solvate) has a documented melting point of > 280 °C

In plain terms, Cc1nc(NC[C@H]2CC[C@H](CNS(=O)(=O)c3cccc4ccccc34)CC2)c2[nH]c(-c3ccccc3)cc2n1 (as salt: hydrochloride) (hydrate or solvate) [Example 194, Hydrochloride Hydrate] has a documented melting point of 165 to 170 °C

In plain terms, Cc1nc(N2CCCCC2)c2[nH]c(C)c(Oc3ccccc3)c2n1.Cl (hydrate or solvate) has a documented melting point of > 280 °C

In plain terms, Fc1ccc(-c2cc3nc(C4CC4)nc(N4CCCCC4)c3[nH]2)cc1 (as salt: hydrochloride) (hydrate or solvate) [Example 209c, Hydrochloride Hydrate] has a documented melting point of > 280 °C

---

I'd be grateful if you could share measured melting point for these entries.
Structures can show the parent of a compound that is named as a salt.

In plain terms, Cc1nc(N2CCCCC2)c2[nH]c(-c3ccccc3)cc2n1 (as salt: hydrochloride) [Example 35] has a documented melting point of 293 to 294 °C

In plain terms, Cc1nc(-n2cccn2)c2[nH]c(-c3ccccc3)cc2n1 (as salt: hydrochloride) (hydrate or solvate) [Example 218, Hydrochloride Hydrate] has a documented melting point of 253 to 254 °C

In plain terms, Cc1nc(N2CCCCC2)c2[nH]c(-c3ccc(SC(F)(F)F)cc3)cc2n1.Cl (hydrate or solvate) [Example 123] has a documented melting point of 270 to 272 °C

In plain terms, Cc1nc(N2CCCCC2)c2[nH]c(-c3ccc(Cl)c(Cl)c3Cl)cc2n1.Cl (hydrate or solvate) has a documented melting point of 264 to 266 °C

In plain terms, Cc1nc(N2CCCCC2)c2[nH]c(-c3cccnc3)cc2n1.Cl (hydrate or solvate) has a documented melting point of > 280 °C

In plain terms, c1ccc(-c2cc3nc(N4CCCCC4)nc(N4CCCCC4)c3[nH]2)cc1 (as salt: hydrochloride) [Example 208] has a documented melting point of > 272 °C

In plain terms, Cc1nc(N2CC=CC2)c2oc(-c3ccccc3)cc2n1 (as salt: hydrochloride) (hydrate or solvate) [Example 216c, Hydrochloride Hydrate] has a documented melting point of 279 to 280 °C

In plain terms, Cc1nc(N2CC=CCC2)c2[nH]c(-c3ccccc3)cc2n1 (as salt: hydrochloride) [Example 65] has a documented melting point of 278 to 279 °C

In plain terms, Cc1nc(N2CCCCC2)c2[nH]c(-c3ccc(-c4ccc(F)c(Cl)c4)o3)cc2n1.Cl (hydrate or solvate) has a documented melting point of > 280 °C

In plain terms, Cc1nc(N2CCCCC2)c2[nH]c(-c3cc4ccccc4o3)cc2n1.Cl (hydrate or solvate) [Example 85] has a documented melting point of > 280 °C

In plain terms, Cc1nc(N2CCCCC2)c2[nH]c(-c3sc4ccccc4c3C)cc2n1.Cl (hydrate or solvate) has a documented melting point of > 280 °C

In plain terms, Cc1nc(N2CCCCC2)c2[nH]c(-c3cc(C)oc3C)cc2n1.Cl (hydrate or solvate) [Example 108] has a documented melting point of 238 to 240 °C

In plain terms, Cc1nc(N2CCCCC2)c2[nH]c(-c3ccc4c(c3)CCO4)cc2n1.Cl (hydrate or solvate) [Example 131] has a documented melting point of 170 to 172 °C

In plain terms, CN(C)c1nc(N2CCCCC2)c2[nH]c(-c3ccccc3)cc2n1 (as salt: hydrochloride) (hydrate or solvate) [Example 203, Hydrochloride Hydrate] has a documented melting point of > 300 °C

---

I'd be grateful if you could share measured melting point for these entries.

In plain terms, Cc1nc(N2CCCCC2)c2[nH]c(-c3cnn(-c4ccccc4)c3C)cc2n1.Cl (hydrate or solvate) has a documented melting point of > 280 °C

In plain terms, "CCc1nc(N2CCCCC2)c2oc(-c3ccc(Cl)cc3)cc2n1" has a documented melting point of > 288 °C

In plain terms, Cc1nc(N2CCCCC2)c2[nH]c(C)cc2n1.Cl (hydrate or solvate) has a documented melting point of 244 to 245.5 °C

In plain terms, "Cc1nc(N2CCCCC2)c2[nH]c(-c3cc(C(F)(F)F)cc(C(F)(F)F)c3)cc2n1.Cl" has a documented melting point of > 280 °C

In plain terms, Cc1nc(N2CCCCC2)c2[nH]c(-c3cc(F)cc(F)c3)cc2n1.Cl (hydrate or solvate) has a documented melting point of > 280 °C

In plain terms, Cc1nc(N2CCCCC2)c2[nH]c(-c3cc(C)sc3C)cc2n1.Cl (hydrate or solvate) has a documented melting point of 240 to 241.5 °C

In plain terms, "COc1ccc(Cc2cc3nc(C)nc(N4CCCCC4)c3[nH]2)cc1.Cl" has a documented melting point of 263 to 267 °C

In plain terms, Cl.c1ccc(-c2[nH]c3c(N4CCCCC4)ncnc3c2-c2ccccc2)cc1 (hydrate or solvate) has a documented melting point of 266 to 268.5 °C

---

Structures can show the parent of a compound that is named as a salt.
Assay readout: melting point

In plain terms, Cc1nc(N2CCOCC2)c2[nH]c(-c3ccc(F)c(F)c3)cc2n1 (as salt: hydrochloride) has a documented melting point of > 280 °C

In plain terms, "Cc1nc(N2CCCCC2)c2[nH]c(-c3ccc(F)cc3)cc2n1.Cl" has a documented melting point of 287 to 289 °C (dec.)

In plain terms, Cc1nc(N2CCCCC2)c2[nH]c(-c3ccc4c(c3)OCO4)c(C)c2n1.Cl (hydrate or solvate) has a documented melting point of 268 to 269 °C

In plain terms, CCc1c(-c2ccccc2)[nH]c2c(N3CCCCC3)nc(C)nc12.Cl (hydrate or solvate) has a documented melting point of 261 to 263 °C

In plain terms, Cc1nc(N2CC=CC2)c2[nH]c(-c3ccccc3)cc2n1 (as salt: hydrochloride) (hydrate or solvate) [Example 61, Hydrochloride Monohydrate] has a documented melting point of 278 to 278.3 °C

In plain terms, "Cc1cc(N2CCCCC2)c2oc(-c3ccccc3)cc2n1.Cl" has a documented melting point of > 280 °C

In plain terms, Cc1nc(N2CCc3ccccc32)c2[nH]c(-c3ccccc3)cc2n1 (as salt: hydrochloride) (hydrate or solvate) [Example 215, Hydrochloride Hydrate] has a documented melting point of > 300 °C

---

Counter-ions that a name gives are not always drawn.
I'd be grateful if you could share measured melting point for these entries.

In plain terms, Cc1nc(N2CCCCC2)c2[nH]c(-c3ccc(O)cc3)cc2n1.Cl (hydrate or solvate) has a documented melting point of > 300 °C (dec.)

In plain terms, Cc1nc(N2CCCCC2CCO)c2[nH]c(-c3ccccc3)cc2n1 (centres unmarked) (as salt: hydrochloride) has a documented melting point of 273 to 273.5 °C

In plain terms, "Cc1nc(N2CCCCC2)c2[nH]c(-c3ccccc3)cc2[n+]1[O-]" has a documented melting point of 169 to 170 °C

In plain terms, Cc1nc(N2CC=CC2)c2[nH]c(-c3cccc(Cl)c3)cc2n1 (as salt: hydrochloride) (hydrate or solvate) [Example 198, Hydrochloride Hydrate] has a documented melting point of 287.5 to 293 °C

In plain terms, Cc1nc(N2CCCCC2)c2[nH]c(-c3sc(C)nc3C)cc2n1.Cl (hydrate or solvate) has a documented melting point of 272 to 273.5 °C

In plain terms, c1ccc(-c2nc(N3CCCCC3)c3[nH]c(-c4ccccc4)cc3n2)cc1 [Example 45d] has a documented melting point of 259 to 261.5 °C

In plain terms, "Cc1nc(N2CCCCC2)c2[nH]c(C)c(-c3ccc(F)cc3)c2n1.Cl" has a documented melting point of > 280 °C

In plain terms, Cc1nc(N2CCCCC2)c2[nH]c(C)c(Cc3ccccc3)c2n1.Cl (hydrate or solvate) has a documented melting point of > 240 °C (dec.)

In plain terms, Cc1nc(N2CCCCC2)c2[nH]c(C3CCCCC3)cc2n1.Cl (hydrate or solvate) [Example 80d] has a documented melting point of > 280 °C

In plain terms, Cc1nc(N2CCCCC2)c2[nH]c(-c3cccc(C(F)(F)F)c3)cc2n1.Cl (hydrate or solvate) has a documented melting point of 241 to 243 °C

In plain terms, Cc1nc(N2CCN(S(=O)(=O)c3ccccc3)CC2)c2[nH]c(-c3ccccc3)cc2n1 (as salt: hydrochloride) (hydrate or solvate) [Example 227, Hydrochloride Monohydrate] has a documented melting point of 242 to 243 °C

In plain terms, Cc1nc(N2[C@H](C)CCC[C@@H]2C)c2[nH]c(-c3ccccc3)cc2n1 (as salt: hydrochloride) has a documented melting point of > 270 °C

In plain terms, Cc1nc(N2CCCCC2)c2[nH]c(-c3ccc(Cl)cc3)c(N3CCCC3)c2n1.Cl (hydrate or solvate) has a documented melting point of > 280 °C

In plain terms, Cc1nc(N2CCCCC2)c2[nH]c(-c3ccccc3)c(Br)c2n1 (as salt: hydrochloride) has a documented melting point of 239 to 240 °C

In plain terms, Cc1nc(N2C(C)C=CC2C)c2[nH]c(-c3ccccc3)cc2n1 (centres unmarked) (as salt: hydrochloride) (hydrate or solvate) [Example 220, Hydrochloride Hydrate] has a documented melting point of 242 to 243 °C

In plain terms, "Cc1nc(N2CCCCC2)c2[nH]c(COc3ccccc3)cc2n1.Cl" has a documented melting point of 238 to 239 °C

In plain terms, COc1ccc(-c2c(C)[nH]c3c(N4CCCCC4)nc(C)nc23)cc1.Cl (hydrate or solvate) has a documented melting point of 170 °C (dec.)

In plain terms, COc1ccc(-c2cc3nc(C)nc(N4CCCCC4)c3[nH]2)cc1OC.Cl (hydrate or solvate) has a documented melting point of 268 to 270 °C

In plain terms, COc1nc(N2CCCCC2)c2[nH]c(-c3ccccc3)cc2n1 (as salt: hydrochloride) (hydrate or solvate) has a documented melting point of 270 to 276 °C

In plain terms, Cc1nc(N2CC=CC2)c2[nH]c(-c3cccc(C(F)(F)F)c3)cc2n1 (as salt: hydrochloride) (hydrate or solvate) [Example 197d, Hydrochloride Monohydrate] has a documented melting point of > 270 °C

In plain terms, Cc1nc(N2CCCCC2)c2[nH]c(-c3ccc(C(F)(F)F)cc3)cc2n1.Cl (hydrate or solvate) has a documented melting point of 278 to 280 °C

In plain terms, Cc1nc(N2CCCCC2)c2[nH]c(-c3ccc(N)cc3)cc2n1 (as salt: hydrochloride) has a documented melting point of > 280 °C

In plain terms, Cc1nc(N2CCCCC2)c2[nH]c(-c3ccc(Cl)c(Cl)c3)c(C)c2n1.Cl (hydrate or solvate) has a documented melting point of > 280 °C

In plain terms, Cc1nc(N2CCCCC2)c2[nH]c(CS(=O)(=O)c3ccc(Cl)cc3)cc2n1.Cl (hydrate or solvate) has a documented melting point of 199 to 201 °C

In plain terms, Cc1nc(N2CCCCC2)c2[nH]c(-c3ccccc3Cl)cc2n1.Cl (hydrate or solvate) has a documented melting point of 240 to 241.5 °C

In plain terms, Cc1nc(N2CCCCC2)c2[nH]c(C34C[C@H]5C[C@@H](C3)C[C@@H](C4)C5)cc2n1.Cl (hydrate or solvate) [Example 81d] has a documented melting point of > 280 °C
